Recorded fraction unbound values for a group of compounds are listed next.
assay info: Fraction unbound in human plasma
Assay type: ADME, cell-free

compound | fraction unbound
COc1ccc2ncc(F)c([C@@H](O)CC[C@@H]3CCN(C4CC(c5cc(F)ccc5F)C4)C[C@@H]3C(=O)O)c2n1 (some centres undefined) | 0.036 to 0.037
COc1ccc2ncc(F)c([C@@H](O)CC[C@@H]3CCN(C4CC(c5cc(F)ccc5F)C4)C[C@@H]3C(=O)O)c2c1 (some centres undefined) | 0.054
COc1ccc2ncc(F)c([C@@H](O)CC[C@@H]3CCN(C4CC(c5ccccc5)C4)C[C@@H]3C(=O)O)c2c1 (some centres undefined) | 0.122 to 0.211
COc1ccc2nccc([C@@H](O)CC[C@@H]3CCN(C4CC(c5ccccc5)C4)C[C@@H]3C(=O)O)c2c1 (some centres undefined) | 0.079 to 0.155
